target: Alpha-2C adrenergic receptor (Homo sapiens); assay: modulators of alpha2C/GIRK thallium flux, primary screen, cell-based, HEK293 alpha2C/GIRK1/2 (AID 624); conditions: thallium flux BTC fluorescence, at 10 µM, actives lie on both sides;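 further: slope of fluorescence ratio to pre-addition baseline per second over 15 to 24 s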
metric: slope
// no unit string in output, number only

Past entries and their recorded results:
- molecular-string: "O=C(CSc1ncnc2c1oc1ccccc12)Nc1ccccc1C(F)(F)F"
  system-name: "Alpha-2C adrenergic receptor (Homo sapiens)"
  value-measured: 0.00657
- molecular-string: "O=C(NCc1ccccn1)c1cc(-n2cnnc2)ccc1Cl"
  system-name: "Alpha-2C adrenergic receptor (Homo sapiens)"
  value-measured: 0.00641

Next item in the queue.
**Q:** Which slope value is on record for `O=C(NCCSc1c[nH]c2ccccc12)c1ccc(Br)o1` ?
**A:** 0.00687
